From: patent US20210347873A1

target: T1, human BLyS (full length, arginine to histidine at position 132) on CHO-K1 cells (human, UniProt Q9Y275 1-285); test: flow cytometry, CHO-K1 hBLyS cells, antibody 0.534 nM
T1 construct: also called hBLyS; CHO-K1 hBLyS
T1 sequence (Q9Y275 whole entry R130H): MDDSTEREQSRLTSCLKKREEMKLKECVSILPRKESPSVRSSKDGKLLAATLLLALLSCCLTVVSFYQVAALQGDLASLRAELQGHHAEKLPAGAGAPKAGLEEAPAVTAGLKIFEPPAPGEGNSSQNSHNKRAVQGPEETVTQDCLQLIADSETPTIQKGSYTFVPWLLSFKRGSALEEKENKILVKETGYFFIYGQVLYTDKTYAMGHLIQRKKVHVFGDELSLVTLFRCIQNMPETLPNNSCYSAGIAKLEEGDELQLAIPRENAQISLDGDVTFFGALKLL
Quick rule for you: MFI under 300 MFI gets True, anything else gets False.

{"binder": "97A3C2H4 (antibody, V domains shown, Mouse hybridoma monoclonal antibody purified on Protein G) VH: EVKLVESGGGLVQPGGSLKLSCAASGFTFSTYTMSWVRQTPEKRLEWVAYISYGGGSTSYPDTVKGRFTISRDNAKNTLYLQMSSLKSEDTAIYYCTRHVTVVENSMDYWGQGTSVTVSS VL: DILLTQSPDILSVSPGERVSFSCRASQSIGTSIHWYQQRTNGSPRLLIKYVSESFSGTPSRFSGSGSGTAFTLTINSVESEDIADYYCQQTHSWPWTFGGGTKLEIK", "label": "False"}
{"binder": "78C11D2D12 (antibody, V domains shown, Mouse hybridoma monoclonal antibody purified on Protein G) VH: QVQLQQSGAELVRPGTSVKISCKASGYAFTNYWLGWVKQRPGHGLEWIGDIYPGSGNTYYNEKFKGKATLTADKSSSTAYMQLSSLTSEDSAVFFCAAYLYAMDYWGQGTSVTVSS VL: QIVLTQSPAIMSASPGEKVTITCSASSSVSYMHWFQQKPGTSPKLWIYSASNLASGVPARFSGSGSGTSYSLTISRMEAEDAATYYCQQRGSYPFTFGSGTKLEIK", "label": "True"}
{"binder": "L9G7 (antibody, V domains shown, From a human naive scFv phage library; also called human BLyS antibody L9G7) VH: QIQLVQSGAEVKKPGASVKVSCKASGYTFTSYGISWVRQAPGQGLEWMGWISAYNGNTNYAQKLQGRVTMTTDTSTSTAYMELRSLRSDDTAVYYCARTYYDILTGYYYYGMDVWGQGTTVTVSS VL: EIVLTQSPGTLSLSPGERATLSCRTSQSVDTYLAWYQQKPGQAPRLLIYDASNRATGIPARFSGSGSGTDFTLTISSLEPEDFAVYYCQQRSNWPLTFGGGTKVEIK", "label": "False"}
{"binder": "67A2E1D10 (antibody, V domains shown, Mouse hybridoma monoclonal antibody purified on Protein G) VH: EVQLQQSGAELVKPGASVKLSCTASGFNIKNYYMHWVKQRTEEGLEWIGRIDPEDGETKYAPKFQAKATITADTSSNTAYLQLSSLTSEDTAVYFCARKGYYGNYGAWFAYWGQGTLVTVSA VL: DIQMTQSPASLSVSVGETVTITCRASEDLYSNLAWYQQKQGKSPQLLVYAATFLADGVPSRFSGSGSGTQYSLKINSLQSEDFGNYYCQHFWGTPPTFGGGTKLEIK", "label": "True"}
